Biological target: T1, EsCas13d, nuclease-dead (Eubacterium siraeum, UniProt B0MS50, R295A;H300A;R849A;H854A)
T1 sequence: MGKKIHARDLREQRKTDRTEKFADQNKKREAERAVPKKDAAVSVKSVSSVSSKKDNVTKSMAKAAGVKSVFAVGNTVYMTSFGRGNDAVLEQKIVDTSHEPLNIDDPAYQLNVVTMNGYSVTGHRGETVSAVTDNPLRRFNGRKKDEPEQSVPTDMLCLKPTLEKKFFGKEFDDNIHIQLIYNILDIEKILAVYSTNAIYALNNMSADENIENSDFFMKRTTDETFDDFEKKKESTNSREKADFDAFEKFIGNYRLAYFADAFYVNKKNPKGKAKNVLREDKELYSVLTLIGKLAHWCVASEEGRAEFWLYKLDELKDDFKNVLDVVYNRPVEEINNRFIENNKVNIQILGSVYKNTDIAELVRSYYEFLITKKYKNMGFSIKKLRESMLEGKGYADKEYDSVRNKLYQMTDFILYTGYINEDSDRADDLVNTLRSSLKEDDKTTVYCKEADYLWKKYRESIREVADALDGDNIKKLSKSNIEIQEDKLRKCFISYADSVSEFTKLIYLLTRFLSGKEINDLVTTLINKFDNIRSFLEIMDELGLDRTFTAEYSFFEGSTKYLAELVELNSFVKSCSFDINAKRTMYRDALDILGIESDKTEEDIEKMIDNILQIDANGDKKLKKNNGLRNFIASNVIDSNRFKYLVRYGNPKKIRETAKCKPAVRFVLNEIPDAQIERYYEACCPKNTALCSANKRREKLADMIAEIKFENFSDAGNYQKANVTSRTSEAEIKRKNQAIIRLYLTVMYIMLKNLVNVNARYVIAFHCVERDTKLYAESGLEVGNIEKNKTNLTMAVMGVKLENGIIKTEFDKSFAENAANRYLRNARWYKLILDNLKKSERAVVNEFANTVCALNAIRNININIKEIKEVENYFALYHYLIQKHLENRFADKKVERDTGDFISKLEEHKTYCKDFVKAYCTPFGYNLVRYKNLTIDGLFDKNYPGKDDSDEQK
Experiment: crRNA (strand 1, pre-loaded); Mg2+; 40 mM Tris-HCl pH 7.5, 150 mM NaCl, 6 mM MgCl2, 1 mM DTT, 0.1% Tween-20, 0.2 mg/ml BSA; 25 C; 10 min per concentration, then washed
Conditions: tags: His6-TwinStrep-SUMO cleaved; N-terminal SNAP kept (SNAP-Surface 488); label: 3' end held by stalled T7 RNA polymerase
Listed binders paired with reported pKd
Note: pKd values are expressed as the negative base-10 logarithm of concentration in M.

binder: target 2 MT 5'PFS GCC 3'PFS UCA (mixed) RNA 1: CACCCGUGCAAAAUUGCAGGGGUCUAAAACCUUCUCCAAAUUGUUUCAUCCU RNA 2: GGGAAUGGAUCCACAUCUACGAAUUCGCCAGGAUGAAACAAUUUGGAGAAGUCAAGAUCGGAAGAGCACACGU
numeric result: 7.77

Give recorded pKd. target 2 MT 5'PFS AGA 3'PFS AUG (mixed) RNA 1: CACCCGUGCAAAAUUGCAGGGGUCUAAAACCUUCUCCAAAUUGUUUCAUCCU RNA 2: GGGAAUGGAUCCACAUCUACGAAUUCAGAAGGAUGAAACAAUUUGGAGAAGAUGAGAUCGGAAGAGCACACGU
8.09
